Each entry below carries its reported pEC50.
tgt: T1, human ROR1 (full-length, on the cell surface) (human, UniProt Q01973 30-937)
T1 construct: whole, on cells; the tumour cell lines carry their own ROR1; also called Ba/F3-ROR1 cells; Jeko-1
test name: flow cytometry, A549 cells
Protocol: The affinities of the anti-human ROR1 humanized antibodies to Ba/F3-ROR1, Jeko-1, HT-29 and A549 cells were detected by flow cytometry. The specific experimental steps were as follows: the BaBF3-ROR1, Jeko-1, HT-29 and A549 cells were incubated with the purified humanized antibodies of different concentration gradients on ice for 30 minutes, and the anti-ROR1 antibody UC961 with human IgG1 and the anti-TNP antibody were used as positive and negative controls, respectively.
In textbook form, pEC50 equals minus log to base ten of the concentration in mol/L.

Completed entries (count: 4):
binder	pEC50
3D8-Hu56 (antibody, human IgG1, kappa, V domains shown, humanized, human IgG1 / kappa) VH: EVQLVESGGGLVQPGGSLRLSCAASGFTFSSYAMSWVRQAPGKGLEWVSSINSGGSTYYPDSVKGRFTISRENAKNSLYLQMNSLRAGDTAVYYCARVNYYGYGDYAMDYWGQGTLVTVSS VL: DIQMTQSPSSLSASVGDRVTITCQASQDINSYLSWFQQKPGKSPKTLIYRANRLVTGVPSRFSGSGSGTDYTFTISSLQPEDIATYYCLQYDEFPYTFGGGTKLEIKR	9.52
3D8-Hu47 (antibody, human IgG1, kappa, V domains shown, humanized, human IgG1 / kappa) VH: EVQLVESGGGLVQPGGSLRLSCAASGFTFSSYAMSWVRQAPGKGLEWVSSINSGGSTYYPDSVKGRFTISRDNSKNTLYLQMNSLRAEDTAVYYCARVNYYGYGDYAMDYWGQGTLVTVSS VL: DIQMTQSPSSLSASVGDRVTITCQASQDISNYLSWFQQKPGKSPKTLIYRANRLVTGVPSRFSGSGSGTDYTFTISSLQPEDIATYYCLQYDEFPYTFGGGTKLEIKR	9.51
38F8-Hu28 (antibody, human IgG1, kappa, V domains shown, humanized, human IgG1 / kappa) VH: EVQLVESGGGLVQPGGSLRLSCAASGFTFSNYAMSWVRQAPGKGLEWVASISSGGPTYYPDSVKGRFTVSRDNSKNTLYLQMNSLRAEDTAVYYCARGYRYDVNWYFDVWGAGTMVTVSS VL: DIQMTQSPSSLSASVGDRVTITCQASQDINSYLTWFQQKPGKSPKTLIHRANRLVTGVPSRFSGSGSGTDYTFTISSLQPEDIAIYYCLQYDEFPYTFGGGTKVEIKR	9.47
3D8-Hu26 (antibody, human IgG1, kappa, V domains shown, humanized, human IgG1 / kappa) VH: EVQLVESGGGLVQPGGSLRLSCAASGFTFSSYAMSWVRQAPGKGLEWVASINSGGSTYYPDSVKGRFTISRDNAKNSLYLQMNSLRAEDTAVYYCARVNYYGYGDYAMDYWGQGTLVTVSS VL: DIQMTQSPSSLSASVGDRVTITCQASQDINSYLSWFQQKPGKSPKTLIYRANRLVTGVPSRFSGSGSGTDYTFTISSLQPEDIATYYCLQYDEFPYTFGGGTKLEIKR	9.70

Consider the additional binder presented here.
Tell me the measured pEC50 of 38F8-Hu24 (antibody, human IgG1, kappa, V domains shown, humanized, human IgG1 / kappa) VH: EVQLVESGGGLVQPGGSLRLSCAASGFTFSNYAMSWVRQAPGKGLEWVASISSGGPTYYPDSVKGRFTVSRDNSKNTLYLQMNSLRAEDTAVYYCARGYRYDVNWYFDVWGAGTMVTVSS VL: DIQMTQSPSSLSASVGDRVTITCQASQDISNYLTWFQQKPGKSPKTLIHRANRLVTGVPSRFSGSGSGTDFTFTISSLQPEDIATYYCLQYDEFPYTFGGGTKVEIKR , please.
9.68
